From: patent US20120225862A1

attribute.measured: melting point

{"columns": ["compound", "attribute.measured", "result"],
 "data": [
  ["O=C(Nc1cccnc1)c1ccc(CNS(=O)(=O)c2ccc([N+](=O)[O-])cc2)cc1", "melting point", "241 to 243 °C"],
  ["Cc1ncccc1NC(=O)c1ccc(CNS(=O)(=O)c2ccc(C(C)(C)C)cc2)cc1", "melting point", "188 to 190 °C"],
  ["CC(C)(C)c1ccc(S(=O)(=O)NCc2ccc(C(=O)Nc3cccnc3)c(F)c2)cc1", "melting point", "185 to 187 °C"],
  ["O=C(Nc1cccnc1)c1ccc(CNS(=O)(=O)c2ccccc2C(F)(F)F)cc1", "melting point", "234 to 237 °C"],
  ["O=C(Nc1nccs1)c1ccc(CNS(=O)(=O)c2ccccc2)cc1", "melting point", "189 to 191 °C"],
  ["O=C(Nc1cccnc1)c1ccc(CNS(=O)(=O)c2ccc(C34CC5CC(CC(Cl)(C5)C3)C4)cc2)cc1 (hydrate or solvate)", "melting point", "229 to 232 °C"],
  ["O=C(Nc1cccnc1)c1ccc(CNS(=O)(=O)c2ccc(C34CC5CC(CC(C5)C3)C4)cc2)cc1 (hydrate or solvate)", "melting point", "220 to 222 °C"],
  ["COC(=O)CCc1ccc(S(=O)(=O)NCc2ccc(C(=O)Nc3cccnc3)cc2)cc1", "melting point", "181 to 182 °C"],
  ["CC(=O)Nc1ccc(NC(=O)c2ccc(CNS(=O)(=O)c3ccc(C(C)(C)C)cc3)cc2)cn1", "melting point", "240 to 243 °C"],
  ["Cc1cncc(NC(=O)c2ccc(CNS(=O)(=O)c3ccc(C(C)(C)C)cc3)cc2)c1", "melting point", "189 to 191 °C"],
  ["CC(C)(C)c1ccc(S(=O)(=O)NCc2ccc(C(=O)Nc3ccc(Cl)nc3)cc2)cc1", "melting point", "251 to 253 °C"],
  ["O=C(Nc1ccncc1)c1ccc(CNS(=O)(=O)c2ccc(I)cc2)cc1", "melting point", "270 to 273 °C"],
  ["COC(=O)c1ccccc1S(=O)(=O)NCc1ccc(C(=O)Nc2cccnc2)cc1", "melting point", "155 to 157 °C"],
  ["COC(=O)c1ccc(S(=O)(=O)NCc2ccc(C(=O)Nc3cccnc3)cc2)cc1", "melting point", "212 to 215 °C"],
  ["O=C(Nc1cccnc1)c1ccc(CNS(=O)(=O)c2ccc(C#CCO)cc2)cc1", "melting point", "207 to 210 °C"],
  ["Cc1cc(CNS(=O)(=O)c2ccc(C(C)(C)C)cc2)ccc1C(=O)Nc1cccnc1", "melting point", "162 to 163 °C"]
]}
